Molecular target: T1, 14-3-3σ (UniProt P31947 1-248)
T1 chain: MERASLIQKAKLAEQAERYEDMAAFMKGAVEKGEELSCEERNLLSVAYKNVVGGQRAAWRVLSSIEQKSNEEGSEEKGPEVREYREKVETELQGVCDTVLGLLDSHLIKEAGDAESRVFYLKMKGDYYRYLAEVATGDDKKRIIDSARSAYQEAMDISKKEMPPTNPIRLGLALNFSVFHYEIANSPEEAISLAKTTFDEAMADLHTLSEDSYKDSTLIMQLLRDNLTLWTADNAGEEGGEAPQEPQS
Experiment: FP; 100 uM compound 83
No end group written: not given here.
// reported Kd for each item listed

Some binders with known Kd results, for comparison:
Binder	Observed
LQRIRSTSTPNVHMV (also: phosphoserine at S214, site in chain not given here) [15-mer A-RAF peptide]	265 nM
QRSTSTPNVH (also: phosphoserine at S259, site in chain not given here, FAM label, site not given here) [FAM-labeled C-RAF259 peptide (10-mer)]	102 nM
GQRDRSSSAPNVHIN (also: phosphoserine at S365, site in chain not given here) [15-mer B-RAF peptide]	94 nM

Then there is this binder:
Query :: Need Kd, item SQRQRSTSTPNVHMV (also: phosphoserine at S259, site in chain not given here) [15-mer C-RAF peptide]
Result :: 145 nM
